Values were extracted from a collection of fitness landscapes (doi:10.1126/science.1257360).

B1: PhoQ; a variant is named by its letters at X, in order, P23837 (parent)
chain: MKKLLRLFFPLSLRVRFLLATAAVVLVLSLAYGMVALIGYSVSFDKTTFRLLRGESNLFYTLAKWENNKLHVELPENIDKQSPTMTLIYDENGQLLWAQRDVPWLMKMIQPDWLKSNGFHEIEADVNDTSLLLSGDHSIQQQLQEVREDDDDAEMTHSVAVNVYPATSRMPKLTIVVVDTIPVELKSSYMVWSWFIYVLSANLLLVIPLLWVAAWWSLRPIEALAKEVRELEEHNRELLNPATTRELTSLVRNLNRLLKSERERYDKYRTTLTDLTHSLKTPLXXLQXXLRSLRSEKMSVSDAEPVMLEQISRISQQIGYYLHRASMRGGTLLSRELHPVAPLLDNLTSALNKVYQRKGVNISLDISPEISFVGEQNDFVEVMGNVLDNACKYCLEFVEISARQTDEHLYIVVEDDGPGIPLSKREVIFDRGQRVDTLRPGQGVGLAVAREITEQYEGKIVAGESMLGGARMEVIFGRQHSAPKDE

Variants of: B1
Test: enrichment ratio after two sorts for PhoP signalling (ratio (wild type AVST 3.29)); higher = more functional
Conditions: with PhoP (E. coli)
The full ranking holds about 140,000 sequences; the median of “enrichment ratio after two sorts for PhoP signalling” is about 0, and the highest 2% start at about 11. For the sample, the highest values were picked, then their nearest neighbours and some sequences at random.
readout.kind: enrichment ratio

[
  {
    "change": "KKYK",
    "readout.kind": "enrichment ratio",
    "rel": "≤",
    "value.measured": 0.25
  },
  {
    "change": "SQSA",
    "readout.kind": "enrichment ratio",
    "rel": "=",
    "value.measured": 3.01
  },
  {
    "change": "FCTM",
    "readout.kind": "enrichment ratio",
    "rel": "≤",
    "value.measured": 0.25
  },
  {
    "change": "TCYN",
    "readout.kind": "enrichment ratio",
    "rel": "=",
    "value.measured": 3.25
  },
  {
    "change": "QECM",
    "readout.kind": "enrichment ratio",
    "rel": "≤",
    "value.measured": 0.25
  },
  {
    "change": "TCNM",
    "readout.kind": "enrichment ratio",
    "rel": "=",
    "value.measured": 1.24
  },
  {
    "change": "GNYR",
    "readout.kind": "enrichment ratio",
    "rel": "≤",
    "value.measured": 0.25
  },
  {
    "change": "TCYA",
    "readout.kind": "enrichment ratio",
    "rel": "=",
    "value.measured": 1.75
  },
  {
    "change": "VWLN",
    "readout.kind": "enrichment ratio",
    "rel": "≤",
    "value.measured": 0.25
  },
  {
    "change": "GYTV",
    "readout.kind": "enrichment ratio",
    "rel": "≤",
    "value.measured": 0.25
  },
  {
    "change": "SQTH",
    "readout.kind": "enrichment ratio",
    "rel": "=",
    "value.measured": 3.03
  }
]
